assay-notes: Comment Code material properties: vapor pressure, ClogP, probability of ingredient color instability, odor detection threshold, melamine formaldehyde PMC headspace response ratio and leakage, liquid dish neat product liquid-air partition coefficient
Assay type: physicochemical
reported-conditions: cell strings several class symbols together; each letter is one property class of L1
test-readout: Comment Code

{"compound": "C=CC(C)(C#N)Cc1ccccc1 (stereo not drawn) [Material 504]", "result": "BDHJK"}
{"compound": "CC(C=O)=Cc1ccccc1 [Material 701]", "result": "ACHIK"}

====

assay-notes: Comment Code material properties: vapor pressure, ClogP, probability of ingredient color instability, odor detection threshold, melamine formaldehyde PMC headspace response ratio and leakage, liquid dish neat product liquid-air partition coefficient
Format: physicochemical
reported-conditions: cell strings several class symbols together; each letter is one property class of L1
test-readout: Comment Code

These recorded examples may help you get a feel for the data.
{"molecule": "CCCCOC(=O)c1ccccc1C(=O)OCCCC", "Comment Code": "DEFHJ"}
{"molecule": "c1ccc(COCc2ccccc2)cc1", "Comment Code": "DEFHJK"}
{"molecule": "CCCCCCOC(=O)c1ccco1", "Comment Code": "DEFHJK"}
{"molecule": "CC1COC(C)(c2ccc3c(c2)C(C)(C)CCC3(C)C)O1 (stereo not shown)", "Comment Code": "DFHJ"}
{"molecule": "CC1C(C)(C)C2CCC3CC(C)(C)OC3C2C1(C)C (stereo not shown) [Material 680]", "Comment Code": "ADEFHJK"}
{"molecule": "CCOC1CCC(C(C)(C)CC)CC1 (stereo not shown)", "Comment Code": "ADEFHJK"}

Now consider the entry below.
Inquiry: May I ask what Comment Code has been recorded for "CC(C)c1ccc(CC=O)cc1" ?
Reply text: BDFHK

====

assay-notes: Comment Code material properties: vapor pressure, ClogP, probability of ingredient color instability, odor detection threshold, melamine formaldehyde PMC headspace response ratio and leakage, liquid dish neat product liquid-air partition coefficient
Type: physicochemical
reported-conditions: Table 1 materials; each letter of the code is one property class (vapor pressure, ClogP, color instability, odor detection threshold, PMC headspace ratio, PMC leakage, liquid dish liquid-air partition coefficient)
test-readout: Comment Code

These recorded examples may help you get a feel for the data.
{"compound": "O=CC(=Cc1ccco1)c1ccccc1", "Comment Code": "CHJ"}
{"compound": "CCC(C)C(=O)OCCc1ccccc1 (stereo not drawn)", "Comment Code": "DEFHJK"}
{"compound": "CC1=CCC(CCC(C)CO)C1(C)C (stereo not drawn)", "Comment Code": "DEFHJK"}
{"compound": "O=C(Oc1ccccc1)c1ccccc1", "Comment Code": "DFHJK"}

Inquiry: May I ask what Comment Code has been recorded for CC(C)=CCCC1=CCC(C)(C=O)CC1 (stereo not drawn) [Material 727] ?
Reply text: DFHJK

====

assay-notes: Comment Code material properties: vapor pressure, ClogP, probability of ingredient color instability, odor detection threshold, melamine formaldehyde PMC headspace response ratio and leakage, liquid dish neat product liquid-air partition coefficient
Type: physicochemical
reported-conditions: Table 1 materials; each letter of the code is one property class (vapor pressure, ClogP, color instability, odor detection threshold, PMC headspace ratio, PMC leakage, liquid dish liquid-air partition coefficient)
test-readout: Comment Code

These recorded examples may help you get a feel for the data.
{"compound": "CCCCC/C=C/CCC=O", "result": "ADHKL"}
{"compound": "CC1=CCC(C23CCCC(C)(C2)OC3)C1(C)C (centres unmarked) [Material 571]", "result": "DFHJ"}
{"compound": "N#CC(=C1CCCCC1)c1ccccc1", "result": "DFHJK"}
{"compound": "CCCCCCCCC=CC=O", "result": "ADHJK"}
{"compound": "CC(=CCC1CC=C(C)C1(C)C)CO (centres unmarked) [Material 908]", "result": "CHJK"}
{"compound": "COc1c2ccoc2cc2oc(=O)ccc12", "result": "CGJ"}
{"compound": "CC(=CCCC1(C)C2CC3C(C2)C31C)CO (centres unmarked)", "result": "DEFHJK"}
{"compound": "CCCCCCC/C=C\\CCC=O", "result": "BDFHJK"}
{"compound": "C=CCCCCCCCCCO", "result": "DEFHJK"}
{"compound": "CC1CC=CCCCCCCCC(=O)OCC1 (centres unmarked)", "result": "DEFHJK"}

Inquiry: May I ask what Comment Code has been recorded for CCCOC(C)OCCc1ccccc1 (centres unmarked) ?
Reply text: CEFHJK

Inquiry: May I ask what Comment Code has been recorded for CC(C)=CCC=C(C)C1CC=C(C)CC1 (centres unmarked) ?
Reply text: DEFHJK

Inquiry: May I ask what Comment Code has been recorded for "CC(C)[C@@]12CC(=O)[C@H](C)[C@@H]1C2" ?
Reply text: ADEFGIJKL

Inquiry: May I ask what Comment Code has been recorded for "CCCCCCCCCCCCCCCCCC(=O)OCCCC" ?
Reply text: DEFHJ

Inquiry: May I ask what Comment Code has been recorded for "CC1=CC[C@@H]2[C@@]3(C)CCCC(C)(C)[C@@H]3CC[C@@]2(C)O1" ?
Reply text: DEFHJK

Inquiry: May I ask what Comment Code has been recorded for C=C1CC2CCC1C2(C)C (centres unmarked) ?
Reply text: ADEFGIJKL

Inquiry: May I ask what Comment Code has been recorded for "CC(=O)c1cc(C(C)(C)C)cc2c1CCC2(C)C" ?
Reply text: DEFHJK

Inquiry: May I ask what Comment Code has been recorded for C=C1CCCC(C)(C)C2C=C(C)CCC12 (centres unmarked) ?
Reply text: BDEFHJK

Inquiry: May I ask what Comment Code has been recorded for "Cc1ncsc1CCO" ?
Reply text: CGIKL

Inquiry: May I ask what Comment Code has been recorded for "C=C(C)[C@@H]1CCC2=CCC[C@@H](C)[C@]2(C)C1" ?
Reply text: BDEFHJK

Inquiry: May I ask what Comment Code has been recorded for CCC(C)(O)CCc1ccccc1 (centres unmarked) ?
Reply text: CEFHJK

Inquiry: May I ask what Comment Code has been recorded for CC1C(=O)CC2(C)CCCC(C)(C)C23CC13 (centres unmarked) ?
Reply text: BDEFHJK

Inquiry: May I ask what Comment Code has been recorded for "O=C1CCCCCCCCCCOCCCCO1" ?
Reply text: DGJ
